- ASSAY TARGET: T1, ADI-26913 IgG
- T1 construct: anti-CD3 IgG
- T1 sequence (VH, as listed by the source limits assumed, chain 1 of 2): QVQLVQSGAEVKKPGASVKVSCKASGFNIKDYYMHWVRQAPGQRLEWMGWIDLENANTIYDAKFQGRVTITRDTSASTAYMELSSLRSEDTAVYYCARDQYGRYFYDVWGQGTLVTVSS
- T1 sequence (VL, as listed by the source limits assumed, chain 2 of 2): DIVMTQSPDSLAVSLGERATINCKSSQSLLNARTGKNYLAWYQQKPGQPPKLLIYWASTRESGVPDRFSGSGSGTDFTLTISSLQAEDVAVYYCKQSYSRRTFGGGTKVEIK
- ASSAY PROTOCOL: SPR Carterra avidity, yeast anti-ID
- Description: Kinetic analysis was conducted at 25° C. in an HBSTE running buffer system (Carterra Cat #3630) using a Carterra LSA (Carterra USA, Salt Lake City, UT). The sample compartment was maintained at 20° C. for the duration of each experiment. For antibody capture experiments, a goat anti-human Fc antibody (Jackson ImmunoResearch) was covalently coupled to an HC30M sensor chip surface via standard amine coupling (1:1 EDC:NHS) and then blocked with ethanolamine (1.0 M, pH 8.5). […]
METRIC NAME: log10 Kd (log10 of the value in nM)
Note: values are log10 of Kd expressed in nM.

Some solved entries appear below for comparison.
INSERT INTO measurements (binder, metric_name, reported_value) VALUES
  ('ADI-34135 (antibody, V domains shown, anti-ID IgG) VH: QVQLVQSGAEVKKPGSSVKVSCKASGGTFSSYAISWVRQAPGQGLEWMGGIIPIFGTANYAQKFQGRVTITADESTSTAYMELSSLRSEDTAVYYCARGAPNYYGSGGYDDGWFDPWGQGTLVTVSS VL: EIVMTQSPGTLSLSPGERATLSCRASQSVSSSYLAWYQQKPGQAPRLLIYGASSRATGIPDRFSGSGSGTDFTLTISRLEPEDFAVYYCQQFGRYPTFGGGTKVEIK', 'log10 Kd', -1.00),
  ('ADI-34134 IgG (antibody, V domains shown) VH: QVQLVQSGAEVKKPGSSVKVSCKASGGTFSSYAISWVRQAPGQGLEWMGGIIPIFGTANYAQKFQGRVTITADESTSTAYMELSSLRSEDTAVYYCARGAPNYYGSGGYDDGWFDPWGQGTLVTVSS VL: EIVLTQSPGTLSLSPGERATLSCRASQSVSSDYLAWYQQKPGQAPRLLIYGASSRATGIPDRFSGSGSGTDFTLTISRLEPEDFAVYYCQQFGRVPTFGGGTKVEIK', 'log10 Kd', 1.32),
  ('ADI-34132 (antibody, V domains shown, anti-ID IgG) VH: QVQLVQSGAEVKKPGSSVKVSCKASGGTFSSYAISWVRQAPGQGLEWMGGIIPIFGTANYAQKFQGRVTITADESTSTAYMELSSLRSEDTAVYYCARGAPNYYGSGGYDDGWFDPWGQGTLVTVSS VL: DIQLTQSPSSLSASVGDRVTITCRASQSISSYLNWYQQKPGKAPKLLIYAASNLQSGVPSRFSGSGSGTDFTLTISSLQPEDFATYYCQQTLHTPITFGGGTKVEIK', 'log10 Kd', -0.03);

For every record below, what is its log10 Kd?
1. ADI-30242 (antibody, V domains shown, anti-ID IgG) VH: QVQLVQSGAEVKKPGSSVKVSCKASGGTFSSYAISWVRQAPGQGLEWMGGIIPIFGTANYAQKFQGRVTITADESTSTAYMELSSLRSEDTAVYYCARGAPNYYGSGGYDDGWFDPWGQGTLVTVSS VL: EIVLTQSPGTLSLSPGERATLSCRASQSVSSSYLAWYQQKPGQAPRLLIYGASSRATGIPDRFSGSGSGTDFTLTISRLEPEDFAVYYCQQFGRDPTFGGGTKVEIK
2. ADI-34137 (antibody, V domains shown, anti-ID IgG) VH: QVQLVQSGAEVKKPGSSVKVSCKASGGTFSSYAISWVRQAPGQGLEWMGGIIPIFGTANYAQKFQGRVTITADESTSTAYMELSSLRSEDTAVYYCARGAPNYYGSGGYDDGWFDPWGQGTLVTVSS VL: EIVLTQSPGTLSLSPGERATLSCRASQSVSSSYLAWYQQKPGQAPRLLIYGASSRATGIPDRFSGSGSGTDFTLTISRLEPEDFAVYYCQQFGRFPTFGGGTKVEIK

Response:
[1.38, -0.52]

The measured values listed here are drawn from patent US20250019439A1.
